target: plasma purified human AT-III (antithrombin III); experiment: AT-III/UFH inhibition K0.5, ratio to Catalyst Biosciences WT FIXa
Assay Readout: K0.5-mut/K0.5-wt
The answer should be written as a number, with no unit following it.

Consider the protein FIXa-Y155F/K247N/N249S/R318Y/R338E/E410N (protein) chain 1: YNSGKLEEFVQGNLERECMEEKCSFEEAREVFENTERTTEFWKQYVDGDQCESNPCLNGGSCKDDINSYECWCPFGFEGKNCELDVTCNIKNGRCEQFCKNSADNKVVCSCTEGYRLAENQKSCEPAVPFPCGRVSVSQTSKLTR chain 2: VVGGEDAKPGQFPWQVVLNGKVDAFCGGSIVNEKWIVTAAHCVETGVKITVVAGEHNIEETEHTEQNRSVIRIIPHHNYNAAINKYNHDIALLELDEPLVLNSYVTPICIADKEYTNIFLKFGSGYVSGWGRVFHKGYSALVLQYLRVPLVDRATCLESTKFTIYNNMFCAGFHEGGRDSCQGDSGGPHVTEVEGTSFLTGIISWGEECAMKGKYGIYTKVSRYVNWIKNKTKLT and give its measured K0.5-mut/K0.5-wt.
200
